B1: PhoQ; a variant is named by its letters at X, in order, P23837 (parent)
chain: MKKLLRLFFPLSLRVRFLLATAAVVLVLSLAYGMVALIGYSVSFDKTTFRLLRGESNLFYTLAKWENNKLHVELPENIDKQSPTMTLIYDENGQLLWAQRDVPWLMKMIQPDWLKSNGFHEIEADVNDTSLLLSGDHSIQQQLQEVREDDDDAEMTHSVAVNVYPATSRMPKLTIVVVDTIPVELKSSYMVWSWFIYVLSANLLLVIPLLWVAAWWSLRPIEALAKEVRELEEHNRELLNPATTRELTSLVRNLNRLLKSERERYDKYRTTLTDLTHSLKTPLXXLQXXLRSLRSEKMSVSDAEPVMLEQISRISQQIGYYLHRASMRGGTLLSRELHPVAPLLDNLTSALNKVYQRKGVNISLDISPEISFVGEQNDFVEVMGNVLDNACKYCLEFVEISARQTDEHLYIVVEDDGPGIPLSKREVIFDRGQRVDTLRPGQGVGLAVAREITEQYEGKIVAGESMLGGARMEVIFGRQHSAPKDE

- Variants of: B1
- measurement-notes: enrichment ratio after two sorts for PhoP signalling (ratio (wild type AVST 3.29)); higher = more functional
- particulars: with PhoP (E. coli)
The full ranking holds about 140,000 sequences; the median of “enrichment ratio after two sorts for PhoP signalling” is about 0, and the highest 2% start at about 11. What follows is part of a selection rich in the highest values, with near analogues and random picks from the rest.
Please provide measured enrichment ratio for the entries that follow.

MCVA : ≤ 0.25
AGCH : 11.6
NAHM : ≤ 0.25
NQCH : ≤ 0.25
GERC : ≤ 0.25
LKYV : ≤ 0.25
TAHM : 14.1
AICH : 15.1

Your task in this section: give enrichment ratio for each listed record.
1. ATCW
2. MCYK

Reply text:
[11.3, "≤ 0.25"]

Required: enrichment ratio, one value per variant below.
1. FCKF
2. GEIC
3. WSFP
4. DQHH
5. KSLC
6. NALK
7. TNRI

Reply text:
1: ≤ 0.25; 2: 45.3; 3: ≤ 0.25; 4: ≤ 0.25; 5: ≤ 0.25; 6: ≤ 0.25; 7: ≤ 0.25

Batch lookup, enrichment ratio per entry.
1. MPFW
2. AHCH
3. GNIY

Reply text:
["≤ 0.25", 2.08, "≤ 0.25"]
